- Tested on: SEM cells
- assay.procedure: selective drug sensitivity score (sDSS, relative to normal bone marrow) (sDSS (score)); higher = more potent and effective on the cell line relative to normal bone marrow cells;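 also: ALL cell lines in 384-well plates, five doses spanning 10,000-fold, each plate scaled between vehicle and 100 µmol/L benzalkonium chloride controls, sDSS an adapted area-under-curve metric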
- settings: 72 h
Threshold rule: selective drug sensitivity score greater than or equal to 0 is true; below that, false.

// known answers, use as guide
>  <molecule>
CNC(=O)c1nn(C)c2c1C(C)(C)Cc1cnc(Nc3ccc(N4CCN(C)CC4)cc3)nc1-2 [Milciclib] (top concentration 10000 nM)

>  <class.name>
true

$$$$
>  <molecule>
Cc1cc(Nc2ncc(Cl)c(Nc3ccccc3S(=O)(=O)C(C)C)n2)c(OC(C)C)cc1C1CCNCC1 [Ceritinib] (top concentration 2500 nM)

>  <class.name>
false

$$$$
>  <molecule>
COc1ccc(S(=O)(=O)Nc2cccnc2Nc2ccc(O)cc2)cc1 [ABT-751] (top concentration 10000 nM)

>  <class.name>
true

$$$$

Continue with the next molecule.
Exercise: # check: selective drug sensitivity score of Cc1sc2c(c1C)C(c1ccc(Cl)cc1)=N[C@@H](CC(=O)Nc1ccc(O)cc1)c1nnc(C)n1-2 [Birabresib] (top concentration 10000 nM) is greater than or equal to 0
Key: true

====

- Tested on: SEM cells
- assay.procedure: selective drug sensitivity score (sDSS, relative to normal bone marrow) (sDSS (score)); higher = more potent and effective on the cell line relative to normal bone marrow cells
- settings: 72 h
property.measured: selective drug sensitivity score
Could you keep your reply to the number by itself?

Here is how some compounds turned out for selective drug sensitivity score.
>  <compound>
C[C@]12CC[C@H](O)CC1=CC[C@@H]1[C@@H]2CC[C@]2(C)C(c3cccnc3)=CC[C@@H]12 [Abiraterone] (top concentration 5000 nM)

>  <property.measured>
selective drug sensitivity score

>  <measured.result>
-0.12

$$$$
>  <compound>
Cc1cnc(NC(=O)Nc2cc(Br)c(C)cc2OC[C@@H]2CNCCO2)cn1 [Rabusertib] (top concentration 1000 nM)

>  <property.measured>
selective drug sensitivity score

>  <measured.result>
1.26

$$$$

Exercise: Determine from records and report selective drug sensitivity score for Cc1cc2c(C(C)C)c(O)c(O)c(C=O)c2c(O)c1-c1c(C)cc2c(C(C)C)c(O)c(O)c(C=O)c2c1O [AT-101] (top concentration 100000 nM)
Key: 3.78

====

- Test system: 697
- assay.procedure: selective drug sensitivity score (sDSS, relative to normal bone marrow) (sDSS (score)); higher = more potent and effective on the cell line relative to normal bone marrow cells
- settings: 72 h
Entries annotated with measured selective drug sensitivity score
Could you keep your reply to the number by itself?

Here is how some compounds turned out for selective drug sensitivity score.
>  <compound>
Cc1sc2c(c1C)C(c1ccc(Cl)cc1)=N[C@@H](CC(=O)Nc1ccc(O)cc1)c1nnc(C)n1-2 [Birabresib] (top concentration 10000 nM)

>  <selective drug sensitivity score>
10.6

$$$$
>  <compound>
CC(C)(C)c1cnc(CSc2cnc(NC(=O)C3CCNCC3)s2)o1 [SNS-032] (top concentration 10000 nM)

>  <selective drug sensitivity score>
-2.64

$$$$
>  <compound>
CC1(C)NC(=O)N(c2ccc([N+](=O)[O-])c(C(F)(F)F)c2)C1=O [Nilutamide] (top concentration 10000 nM)

>  <selective drug sensitivity score>
0.22

$$$$
>  <compound>
CNC(=O)CN1CCC(Oc2cc3c(Nc4cccc(Cl)c4F)ncnc3cc2OC)CC1 [Sapitinib] (top concentration 1000 nM)

>  <selective drug sensitivity score>
0

$$$$
>  <compound>
CCc1c2c(nc3ccc(O)cc13)-c1cc3c(c(=O)n1C2)COC(=O)[C@]3(O)CC [SN-38] (top concentration 10000 nM)

>  <selective drug sensitivity score>
22.7

$$$$

Exercise: Determine from records and report selective drug sensitivity score for C=CCc1cccc(/C=N/NC(=O)CN2CCN(Cc3ccccc3)CC2)c1O [PAC-1] (top concentration 10000 nM)
Key: 4.08

Exercise: Determine from records and report selective drug sensitivity score for CC(C)(O)CC(=O)NCCn1ccc2ncnc(Nc3ccc(Oc4cccc(C(F)(F)F)c4)c(Cl)c3)c21 [TAK-285] (top concentration 2500 nM)
Key: 0

Exercise: Determine from records and report selective drug sensitivity score for COc1cc2c(N3CCN(C(=O)Nc4ccc(OC(C)C)cc4)CC3)ncnc2cc1OCCCN1CCCCC1 [Tandutinib] (top concentration 1000 nM)
Key: 0

Exercise: Determine from records and report selective drug sensitivity score for CC(C)C(=O)Nc1ccc([N+](=O)[O-])c(C(F)(F)F)c1 [Flutamide] (top concentration 10000 nM)
Key: 1.94
